System: proteasome
Experiment: Cellular proteasome inhibition test: accumulation of 4Ub-Luc reporter (luciferase activity) in DLD-1 4Ub-Luc cell line
Type: cell-based, human
Settings: concentration tested 10^−5 M; DLD-1 4Ub-Luc cells; 8 hours; epoxomicin = 100%
observable: relative induction factor (IF % luminescence) versus epoxomicin (%)
// note: answer is a bare numeric in %

The following compounds have reported results that may help.
compound	experimental.result
C=C(C(=O)C(OC(C)=O)C(C)[C@H]1[C@@H](OC(C)=O)C[C@@]2(C)[C@@H]3CC[C@H]4[C@H](C)C(=O)C=C[C@@]45C[C@@]35CC[C@]12C)C(C)CO (stereo partly shown) [Compound 13]	60
C=C(C(=O)[C@H](OC(C)=O)[C@@H](C)[C@H]1[C@@H](OC(C)=O)C[C@@]2(C)[C@@H]3CC[C@H]4[C@H](C)C(=O)C=C[C@@]45C[C@@]35CC[C@]12C)[C@@H](C)CO [Compound 2, Neoboutomellerone]	4

Value (relative induction factor (IF % luminescence) versus epoxomicin, proteasome) for record C=C(C(=O)[C@H](O)[C@@H](C)[C@H]1[C@@H](OC(C)=O)C[C@@]2(C)C3CCC4[C@H](C)C(=O)C=C[C@@]45C[C@@]35CC[C@]12C)[C@@H](C)COC(=O)CN(C)C (stereo partly shown) [Compound 64] = 7

Tested on proteasome: C=C(C(=O)[C@H](OC(=O)CCC(=O)O)[C@@H](C)[C@H]1[C@@H](OC(C)=O)C[C@@]2(C)C3CCC4[C@H](C)C(=O)C=C[C@@]45C[C@@]35CC[C@]12C)[C@@H](C)COC(C)=O (stereo partly shown) [Compound 74] . Observed relative induction factor (IF % luminescence) versus epoxomicin: 2

====

Test system: proteasome
Test: Cellular proteasome inhibition test: accumulation of 4Ub-Luc reporter (luciferase activity) in DLD-1 4Ub-Luc cell line
Assay type: cell-based, human
Settings: concentration tested 10^−5 M; DLD-1 4Ub-Luc cells; 8 hours; epoxomicin = 100%
observable: relative induction factor (IF % luminescence) versus epoxomicin (%)
Write down the numeric answer in % and omit the unit.

Example compounds with recorded relative induction factor (IF % luminescence) versus epoxomicin:
compound	experimental.result
CC(=O)O[C@H]1C[C@@]2(C)[C@@H]3CC[C@H]4[C@H](C)C(=O)C=C[C@@]45C[C@@]35CC[C@]2(C)[C@H]1[C@H](C)[C@@H](OC(C)=O)C12OCC(C)C1Cc1ccc(O)cc1O2 (some centres unmarked)	78
C=C(C(=O)[C@H](OC(C)=O)[C@@H](C)[C@H]1[C@@H](OC(C)=O)C[C@@]2(C)C3CCC4[C@H](C)C(=O)C=C[C@@]45C[C@@]35CC[C@]12C)[C@@H](C)COC(=O)CCC(=O)O (some centres unmarked) [Compound 68, 26-succinate-neoboutomellerone]	4
C=C(C(=O)[C@H](OC(C)=O)[C@@H](C)[C@H]1[C@@H](OC(C)=O)C[C@@]2(C)C3CCC4[C@H](C)C(=O)C=C[C@@]45C[C@@]35CC[C@]12C)[C@@H](C)COC1(C)OC2OC(COC(C)=O)C(OC(C)=O)C(OC(C)O)C2O1 (some centres unmarked)	48

Summary for this compound, C=C(C(=O)[C@H](OC(C)=O)[C@@H](C)[C@H]1[C@@H](OC(C)=O)C[C@@]2(C)C3CCC4[C@H](C)C(=O)C=C[C@@]45C[C@@]35CC[C@]12C)[C@@H](C)COC(=O)CNC(=O)OC(C)(C)C (some centres unmarked) [Compound 56, Neoboutomellerone 26-N-Boc-glycinate] : relative induction factor (IF % luminescence) versus epoxomicin is 7

Reported relative induction factor (IF % luminescence) versus epoxomicin of C=C(C(=O)[C@H](OC(C)=O)[C@@H](C)[C@H]1[C@@H](OC(C)=O)C[C@@]2(C)C3CCC4[C@H](C)C(=O)C=C[C@@]45C[C@@]35CC[C@]12C)[C@@H](C)COP(=O)(OCC)OCC (some centres unmarked) [Compound 92, 26-(diethylphosphate)-neoboutomellerone] : 2

Memo: "C=C(C(=O)[C@H](OC(C)=O)[C@@H](C)[C@H]1[C@@H](OC(C)=O)C[C@@]2(C)[C@@H]3CC[C@H]4[C@H](C)/C(=N/NC(N)=O)C=C[C@@]45C[C@@]35CC[C@]12C)[C@@H](C)CO" , reported relative induction factor (IF % luminescence) versus epoxomicin: 30

relative induction factor (IF % luminescence) versus epoxomicin recorded for this compound, C=C([C@@H](C)COC)C1(O)O[C@H]2C[C@@]3(C)C4CCC5[C@H](C)C(=O)C=C[C@@]56C[C@@]46CC[C@]3(C)[C@H]2[C@H](C)[C@H]1OC(C)=O (some centres unmarked) , is 60

Item: C=C(C(=O)[C@H](O)[C@@H](C)[C@H]1[C@@H](OC(C)=O)C[C@@]2(C)C3CCC4[C@H](C)C(=O)C=C[C@@]45C[C@@]35CC[C@]12C)[C@@H](C)COC(C)=O (some centres unmarked) | relative induction factor (IF % luminescence) versus epoxomicin: 6

Data credit: patent US8785424B2
